# protocol-text: CCTE_Mundy_HCI_hNP1_Casp3_7: CCTE's Caspase-Glo 3/7 Assay in human neuroprogenitor cells for Apoptosis, Mundy Lab (AID 2284240)
Activity calls are given as the source filed them. How the source made its calls: active means hit-call score of the fitted dose curve at least 0.9, where 1 is the maximum; inactive means score below 0.9.
Allowed answers: active, inactive

Recorded results for 6 compounds are shown here.
Could you please tell me the result logged for CC1(C)S[C@@H]2[C@H](NC(=O)[C@H](N)c3ccc(O)cc3)C(=O)N2[C@H]1C(=O)O in this assay? inactive

And then CC1(C)S[C@@H]2[C@H](NC(=O)[C@H](N)c3ccccc3)C(=O)N2[C@H]1C(=O)O , what is it? inactive

And then CN(C)CCC(c1ccc(Cl)cc1)c1ccccn1 (stereo not given) , what is it? inactive

And then Cc1c(O)cccc1C(=O)N[C@@H](CSc1ccccc1)[C@H](O)CN1C[C@H]2CCCC[C@H]2C[C@H]1C(=O)NC(C)(C)C , what is it? active

And then [Cl-].[Cl-].[NH2-].[NH2-].[Pt+4] , what is it? inactive

And then NC(N)=Nc1nc(CSCCC(N)=NS(N)(=O)=O)cs1 , what is it? inactive

More entries:
Could you please tell me the result logged for CN(C)C(=O)C(CCN1CCC(O)(c2ccc(Cl)cc2)CC1)(c1ccccc1)c1ccccc1 in this assay? active

And then CNCCC(Oc1ccc(C(F)(F)F)cc1)c1ccccc1 (stereo not given) , what is it? active

And then CC(C)(C)NCC(O)c1cc(O)cc(O)c1 (stereo not given) , what is it? inactive

And then C[C@@H]1C[C@H]2[C@@H]3CCC4=CC(=O)C=C[C@]4(C)[C@@]3(F)[C@@H](O)C[C@]2(C)[C@@]1(O)C(=O)CO , what is it? inactive

====

# target-or-test-system: Cellular tumor antigen p53 (Homo sapiens)
# protocol-text: TOX21_p53_BLA_p3_ratio: Tox21 HCT-116 p53 Agonism Beta-lactamase Assay, Ratio, Phase 3 (AID 2283596)
Records with an inconclusive call do not appear. The source made the active and inactive calls. The calls were made as follows: active = hit-call score of the fitted dose curve at least 0.9, where 1 is the maximum; inconclusive = response in the unintended direction; inactive = score below 0.9.
value-kind: outcome

// known answers, use as guide
Quick one: outcome of Cc1ccc(O)c(C(=O)c2ccccc2)c1 ? inactive

And then CCCCCCCC/C=C/CCCOC(C)=O , what is it? inactive

And then CCOC(=O)[C@H](CCc1ccccc1)N[C@@H](C)C(=O)N1Cc2ccccc2C[C@H]1C(=O)O , what is it? inactive

And then O=C(O)CCCC/C=C(\c1ccccc1)c1cccnc1 , what is it? inactive

More entries:
Quick one: outcome of O=C1CCC(c2ccccc2)(C2CCN(Cc3ccccc3)CC2)C(=O)N1 (configuration not stated) ? inactive

And then O=[N+]([O-])c1ccc2c(c1)Cc1ccccc1-2 , what is it? inactive

And then COc1ccc(CCN(C)CCCC(C#N)(c2cc(OC)c(OC)c(OC)c2)C(C)C)cc1OC (configuration not stated) , what is it? inactive

====

# target-or-test-system: Cellular tumor antigen p53 (Homo sapiens)
# protocol-text: TOX21_p53_BLA_p2_ratio: Tox21 HCT-116 p53 Agonism Beta-lactamase Assay, Ratio, Phase 2 (AID 2283592)
Inconclusive results are not listed. The source made the active and inactive calls. Rule for the calls: active = hit-call score of the fitted dose curve at least 0.9, where 1 is the maximum; inconclusive = response in the unintended direction; inactive = score below 0.9.
Allowed answers: active, inactive

Recorded results for 4 compounds are shown here.
Could you please tell me the result logged for O=C1O[C@H](CO)[C@@H](O)[C@H](O)[C@H]1O in this assay? inactive

And then CC(C(=O)O)c1ccc(C2CCCCC2)c2ccccc12 (stereo not drawn) , what is it? inactive

And then CCOC(=O)n1ccn(C)c1=S , what is it? inactive

And then CC(C)c1nc(N(C)S(C)(=O)=O)nc(-c2ccc(F)cc2)c1/C=C/C(O)CC(O)CC(=O)O (stereo not drawn) , what is it? inactive

Attention now turns to another entry.
Could you please tell me the result logged for CN1[C@@H](CC(=O)c2ccccc2)CCC[C@H]1C[C@H](O)c1ccccc1 in this assay? inactive

The measured values listed here are drawn from PubChem BioAssay (EPA / NIEHS).
